Read-out record for Menin (Homo sapiens): pKi
pKi: −log10 of the molar value. *1 amine or outer side, *2 acyl side, *3 side chain or, on linkers, in order; H or OH if unused. Where a SMILES comes first, the peptide text is derived from it. Bridges are numbered along the chain shown (N, C = ends). [ ]: non-standard residue; d: D form. Phe(3-CF3) = N[C@@H](Cc1cccc(C(F)(F)F)c1)C(=O)O; hhhhLys = O=C([C@H](CCCCCCCCN[*:3])N[*:1])[*:2]; X2 = CC(C)Cc1cccc(C[C@H](N[*:1])C(=O)[*:2])c1; X1 = CCc1cccc(C[C@H](N[*:1])C(=O)[*:2])c1; Phe(3-Cl) = N[C@@H](Cc1cccc(Cl)c1)C(=O)O; Phe(4-Cl) = N[C@@H](Cc1ccc(Cl)cc1)C(=O)O; NH(CH2)9CO = O=C(CCCCCCCCCN[*:1])[*:2]; Phe(2-Cl) = N[C@@H](Cc1ccccc1Cl)C(=O)O; Phe(3-F) = N[C@@H](Cc1cccc(F)c1)C(=O)O; Phe(3-Me) = Cc1cccc(C[C@H](N)C(=O)O)c1; Phe(4-F) = N[C@@H](Cc1ccc(F)cc1)C(=O)O; Phe(2-F) = N[C@@H](Cc1ccccc1F)C(=O)O; Cha = N[C@@H](CC1CCCCC1)C(=O)O; Ahp(2) = CCCCC[C@H](N)C(=O)O; hLys = NCCCCC[C@H](N)C(=O)O; Ac5c = NC1(C(=O)O)CCCC1; Abu = CC[C@H](N)C(=O)O; Ac4c = NC1(C(=O)O)CCC1; Ac3c = NC1(C(=O)O)CC1; Aib = CC(C)(N)C(=O)O

[
  {
    "compound": "CCCCC[C@H](NC(=O)[C@H](Cc1c[nH]c2ccccc12)NC(=O)[C@H](CCCNC(=N)N)NC(C)=O)C(=O)N[C@@H](Cc1ccccc1)C(=O)N1CCC[C@H]1C(=O)N[C@@H](C)C(=O)N[C@@H](CCCNC(=N)N)C(=O)N1CCC[C@H]1C(=O)NCC (Ac-RW[Ahp(2)]FPARP-NHEt)",
    "pKi": 5.66
  },
  {
    "compound": "N=C(N)NCCC[C@@H]1NC(=O)C2(CCC2)NC(=O)[C@@H]2CCCN2C(=O)[C@H](Cc2cccc(C(F)(F)F)c2)NC(=O)[C@@H](N)CCCCCCCCNC(=O)[C@@H]2CCCN2C1=O (H-[hhhhLys][Phe(3-CF3)]P[Ac4c]RP; lactam 1-C)",
    "pKi": 6.14
  },
  {
    "compound": "N=C(N)NCCC[C@@H]1NC(=O)C2(CCC2)NC(=O)[C@@H]2CCCN2C(=O)[C@H](Cc2cccc(Cl)c2)NC(=O)[C@@H](N)CCCCCCCCNC(=O)[C@@H]2CCCN2C1=O (H-[hhhhLys][Phe(3-Cl)]P[Ac4c]RP; lactam 1-C)",
    "pKi": 7.35
  },
  {
    "compound": "N=C(N)NCCC[C@@H]1NC(=O)C2(CCC2)NC(=O)[C@@H]2CCCN2C(=O)[C@H](Cc2ccccc2Cl)NC(=O)[C@@H](N)CCCCCCCCNC(=O)[C@@H]2CCCN2C1=O (H-[hhhhLys][Phe(2-Cl)]P[Ac4c]RP; lactam 1-C)",
    "pKi": 7.52
  },
  {
    "compound": "N=C(N)NCCC[C@@H]1NC(=O)C2(CCC2)NC(=O)[C@@H]2CCCN2C(=O)[C@H](Cc2ccc(F)cc2)NC(=O)[C@@H](N)CCCCCCCCNC(=O)[C@@H]2CCCN2C1=O (H-[hhhhLys][Phe(4-F)]P[Ac4c]RP; lactam 1-C)",
    "pKi": 6.91
  },
  {
    "compound": "N=C(N)NCCC[C@@H]1NC(=O)C2(CCCC2)NC(=O)[C@@H]2CCCN2C(=O)[C@H](Cc2ccccc2)NC(=O)[C@@H](N)CCCCCCCCNC(=O)[C@@H]2CCCN2C1=O (H-[hhhhLys]FP[Ac5c]RP; lactam 1-C)",
    "pKi": 5.78
  },
  {
    "compound": "Cc1cccc(C[C@@H]2NC(=O)[C@@H](N)CCCCCCCCNC(=O)[C@@H]3CCCN3C(=O)[C@H](CCCNC(=N)N)NC(=O)C3(CCC3)NC(=O)[C@@H]3CCCN3C2=O)c1 (H-[hhhhLys][Phe(3-Me)]P[Ac4c]RP; lactam 1-C)",
    "pKi": 6.48
  },
  {
    "compound": "CC(C)Cc1cccc(C[C@@H]2NC(=O)[C@@H](N)CCCCCCCCNC(=O)[C@@H]3CCCN3C(=O)[C@H](CCCNC(=N)N)NC(=O)C3(CCC3)NC(=O)[C@@H]3CCCN3C2=O)c1 (H-[hhhhLys][X2]P[Ac4c]RP; lactam 1-C)",
    "pKi": 4.94
  },
  {
    "compound": "N=C(N)NCCC[C@@H]1NC(=O)C2(CCC2)NC(=O)[C@@H]2CCCN2C(=O)[C@H](Cc2ccc(Cl)cc2)NC(=O)[C@@H](N)CCCCCCCCNC(=O)[C@@H]2CCCN2C1=O (H-[hhhhLys][Phe(4-Cl)]P[Ac4c]RP; lactam 1-C)",
    "pKi": 6.26
  },
  {
    "compound": "N=C(N)NCCC[C@@H]1NC(=O)C2(CCC2)NC(=O)[C@@H]2CCCN2C(=O)[C@H](Cc2cccc(F)c2)NC(=O)[C@@H](N)CCCCCCCCNC(=O)[C@@H]2CCCN2C1=O (H-[hhhhLys][Phe(3-F)]P[Ac4c]RP; lactam 1-C)",
    "pKi": 8.17
  },
  {
    "compound": "CC1(C)NC(=O)[C@@H]2CCCN2C(=O)[C@H](Cc2ccccc2)NC(=O)[C@@H](N)CCCCCCCCNC(=O)[C@@H]2CCCN2C(=O)[C@H](CCCNC(=N)N)NC1=O (H-[hhhhLys]FP[Aib]RP; lactam 1-C)",
    "pKi": 7.17
  },
  {
    "compound": "CC(=O)N[C@@H](CCCNC(=N)N)C(=O)N[C@@H](Cc1c[nH]c2ccccc12)C(=O)N[C@H]1CCCCCNC(=O)[C@@H]2CCCN2C(=O)[C@H](CCCNC(=N)N)NC(=O)[C@H](C)NC(=O)[C@@H]2CCCN2C(=O)[C@H](Cc2ccccc2)NC1=O (Ac-RW[hLys]FPARP; lactam 3-C)",
    "pKi": 6.87
  },
  {
    "compound": "CC[C@@H]1NC(=O)[C@@H]2CCCN2C(=O)[C@H](Cc2ccccc2)NC(=O)[C@@H](N)CCCCCCCCNC(=O)[C@@H]2CCCN2C(=O)[C@H](CCCNC(=N)N)NC1=O (H-[hhhhLys]FP[Abu]RP; lactam 1-C)",
    "pKi": 5.50
  },
  {
    "compound": "CCc1cccc(C[C@@H]2NC(=O)[C@@H](N)CCCCCCCCNC(=O)[C@@H]3CCCN3C(=O)[C@H](CCCNC(=N)N)NC(=O)C3(CCC3)NC(=O)[C@@H]3CCCN3C2=O)c1 (H-[hhhhLys][X1]P[Ac4c]RP; lactam 1-C)",
    "pKi": 5.88
  },
  {
    "compound": "N=C(N)NCCC[C@@H]1NC(=O)C2(CCC2)NC(=O)[C@@H]2CCCN2C(=O)[C@H](Cc2ccccc2F)NC(=O)[C@@H](N)CCCCCCCCNC(=O)[C@@H]2CCCN2C1=O (H-[hhhhLys][Phe(2-F)]P[Ac4c]RP; lactam 1-C)",
    "pKi": 7.56
  },
  {
    "compound": "C[C@@H]1NC(=O)[C@@H]2CCCN2C(=O)[C@H](Cc2ccccc2)NC(=O)CCCCCCCCCNC(=O)[C@@H]2CCCN2C(=O)[C@H](CCCNC(=N)N)NC1=O (cyclo(ARP[NH(CH2)9CO]FP))",
    "pKi": 5.74
  },
  {
    "compound": "CC(=O)N[C@H]1CCCCCCCCNC(=O)[C@@H]2CCCN2C(=O)[C@H](CCCNC(=N)N)NC(=O)[C@H](C)NC(=O)[C@@H]2CCCN2C(=O)[C@H](Cc2ccccc2)NC1=O (Ac-[hhhhLys]FPARP; lactam 1-C)",
    "pKi": 6.23
  },
  {
    "compound": "N=C(N)NCCC[C@@H]1NC(=O)C2(CC2)NC(=O)[C@@H]2CCCN2C(=O)[C@H](Cc2ccccc2)NC(=O)[C@@H](N)CCCCCCCCNC(=O)[C@@H]2CCCN2C1=O (H-[hhhhLys]FP[Ac3c]RP; lactam 1-C)",
    "pKi": 7.26
  },
  {
    "compound": "N=C(N)NCCC[C@@H]1NC(=O)C2(CCC2)NC(=O)[C@@H]2CCCN2C(=O)[C@H](CC2CCCCC2)NC(=O)[C@@H](N)CCCCCCCCNC(=O)[C@@H]2CCCN2C1=O (H-[hhhhLys][Cha]P[Ac4c]RP; lactam 1-C)",
    "pKi": 6.06
  }
]
